# credit: patent US20240336604A1

For each of the compounds below, state its pIC50.
Target: D3 DAR (Homo sapiens, UniProt P35462)
Sequence (P35462 whole entry): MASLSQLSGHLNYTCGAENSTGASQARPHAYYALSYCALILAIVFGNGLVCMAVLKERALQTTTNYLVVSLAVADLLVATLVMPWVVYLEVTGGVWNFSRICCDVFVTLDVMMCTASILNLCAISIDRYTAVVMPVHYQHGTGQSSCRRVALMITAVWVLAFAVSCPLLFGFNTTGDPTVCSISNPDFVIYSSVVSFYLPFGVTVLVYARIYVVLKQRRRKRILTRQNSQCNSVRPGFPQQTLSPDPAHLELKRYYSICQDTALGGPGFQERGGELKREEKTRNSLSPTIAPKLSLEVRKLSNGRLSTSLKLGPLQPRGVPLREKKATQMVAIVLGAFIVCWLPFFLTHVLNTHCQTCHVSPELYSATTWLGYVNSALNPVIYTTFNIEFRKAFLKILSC
Assay: DiscoverX D3 DAR β-arrestin recruitment assay
Assay type: cell-based
Parameters: host or cells: CHO
Details: EC80 concentration of DA (30 nM); read-out: D3 DAR IC50
From the text: A D3 DAR β-arrestin cell line from DiscoverX (Fremont, CA) was used as described in the protocol below (Table 2). A CHO cell line engineered to overexpress the D3 DAR fused with a small 42-amino acid fragment of β-galactosidase called ProLink™ and a fusion protein consisting of β-arrestin and a larger N-terminal deletion mutant of β-galactosidase was used (DiscoverX catalogue number 93-0579C2). […]
pIC50: −log10 of the molar value.

Known pIC50 results, listed for orientation:
Query :: // returns reported pIC50 for input Cc1[nH]c(C)c(S(=O)(=O)Nc2ccc(F)cc2)c1C(=O)N1CCCC1
Result :: < 4.00

Query :: // returns reported pIC50 for input Cc1[nH]c(C)c(S(=O)(=O)Nc2ccc(C(F)(F)F)c(Cl)c2)c1C(=O)N1CCNCC1.Cl
Result :: 4.00 to 4.30

Query :: // returns reported pIC50 for input Cc1[nH]c(C)c(S(=O)(=O)Nc2ccc(C(F)(F)F)c(Cl)c2)c1C(=O)N(C)C
Result :: > 5.00

Here are 2 compounds. What values of pIC50 were reported for them?
1. CCOC(=O)C1=NOC2(C1)C(=O)Nc1ccc(OC(F)(F)F)cc12 (stereo not shown) [compound 44]
2. Cc1[nH]c(C)c(S(=O)(=O)Nc2ccc(C(F)(F)F)c(Cl)c2)c1C(=O)N1CCCC1

Result ::
["> 5.00", "> 5.00"]

Here are 4 compounds. What values of pIC50 were reported for them?
1. Cc1ccc(NS(=O)(=O)c2c(C)[nH]c(C)c2C(=O)N2CCCC2)cc1
2. Cc1[nH]c(C)c(S(=O)(=O)Nc2ccc(C(F)(F)F)c(Cl)c2)c1C(=O)N1CCC(F)(F)C1
3. O=C(c1c(S(=O)(=O)Nc2ccc(C(F)(F)F)c(Cl)c2)c[nH]c1C(F)(F)F)N1CCCC1
4. CCc1ccc(NS(=O)(=O)c2c(C)[nH]c(C)c2C(=O)N2CCCC2)cc1Cl

Result ::
["4.30 to 5.00", "> 5.00", "4.30 to 5.00", "4.30 to 5.00"]

Here are 6 compounds. What values of pIC50 were reported for them?
1. Cc1[nH]c(C)c(S(=O)(=O)Nc2cc(Cl)c(C(F)(F)F)c(Cl)c2)c1C(=O)N1CCC(F)(F)C1
2. Cc1[nH]c(C)c(S(=O)(=O)Nc2ccc(C(F)(F)F)c(Cl)c2)c1C(=O)O
3. Cc1cccc(CNC(=O)c2sc(=O)n(Cc3c(C)cccc3C)c2C)c1
4. Cc1[nH]c(C)c(S(=O)(=O)Nc2ccc(C(C)C)cc2)c1C(=O)N1CCCC1
5. [2H]C1([2H])CCC([2H])([2H])N1C(=O)c1c(C)[nH]c(C)c1S(=O)(=O)Nc1ccc(C(F)(F)F)c(Cl)c1
6. Cc1ccc(NS(=O)(=O)c2c(C)[nH]c(C)c2C(=O)N2CCCC2)cc1F

Result ::
> 5.00
4.00 to 4.30
4.30 to 5.00
4.30 to 5.00
> 5.00
4.30 to 5.00

Here are 6 compounds. What values of pIC50 were reported for them?
1. CCN(C)C(=O)c1c(C)[nH]c(C)c1S(=O)(=O)Nc1ccc(C(F)(F)F)c(Cl)c1
2. Cc1[nH]c(C)c(S(=O)(=O)N2CCC(F)(F)C2)c1C(=O)Nc1ccc(C(F)(F)F)c(Cl)c1
3. CCOC(=O)C1=NOC2(C1)C(=O)Nc1ccc(OC(F)(F)F)cc12 (racemic) [Cmp. 25]
4. Cc1ccc(NS(=O)(=O)c2c(C)[nH]c(C)c2C(=O)N2CCCCC2)cc1Cl
5. Cc1[nH]c(C)c(S(=O)(=O)Nc2cccc(Cl)c2)c1C(=O)N1CCCC1
6. Cc1ccc(NS(=O)(=O)c2c(C)[nH]c(C)c2C(=O)N2CCCC2C)cc1Cl (stereo not shown)

Result ::
4.30 to 5.00
4.00 to 4.30
4.30 to 5.00
4.30 to 5.00
4.30 to 5.00
4.30 to 5.00

Query :: // returns reported pIC50 for input Cc1ccc(NS(=O)(=O)c2c(C)[nH]c(C(F)(F)F)c2C(=O)N2CCCC2)cc1Cl
Result :: > 5.00
